The values you see were collected from PubChem BioAssay (NCI).

Below, each entry is listed alongside its reported log10 TGI.
Tested on: HS 578T breast
Test: NCI tumour cell line growth inhibition, 48 h
measure.name: log10 TGI (log10 of the value in µM)

>  <compound>
Oc1ccc(C(c2ccc(O)cc2)c2ccc(Br)cn2)cc1

>  <log10 TGI>
-0.23

$$$$
>  <compound>
O=[N+]([O-])c1ccc(C(=S)Nc2ccccc2)o1

>  <log10 TGI>
1.51

$$$$
>  <compound>
C[N+](C)(C)CC1CCCC1=O (stereo not drawn)

>  <log10 TGI>
1.22

$$$$
>  <compound>
O=c1c2cc(S(=O)(=O)O)ccc2nc(COc2ccc(Oc3ccc(Cl)cc3Cl)cc2)n1-c1ccc(Oc2ccc(Cl)cc2)cc1Cl

>  <log10 TGI>
1.63

$$$$
>  <compound>
COC(=O)[C@H]1CCCN1C(=O)[C@H]1CCCN1C(=O)[C@@H](Cc1c[nH]c2ccccc12)NC(=S)Nc1cc(C(F)(F)F)cc(C(F)(F)F)c1

>  <log10 TGI>
0.71

$$$$
>  <compound>
COc1ccc(-c2nc(/C=C3\SC(=NCc4ccccc4)NC3=O)c3ccccn23)cc1

>  <log10 TGI>
0.64

$$$$
>  <compound>
COc1ccc(N(CC(=O)NCCC[Te]c2ccccc2)C(=O)CNC(=O)OC(C)(C)C)cc1

>  <log10 TGI>
0.86

$$$$
>  <compound>
Oc1[nH]c2ccccc2c1N=NC(=S)Nc1ccccc1Cl

>  <log10 TGI>
1.75

$$$$
